- procedure.details: NCI Yeast Anticancer Drug Screen. Data for the sgs1 mgt1 strain (AID 161);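 also: 0% = growth of cultures given vehicle only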
- measurement.setup: S. cerevisiae sgs1 mgt1 strain, at 5.0 µM (retest, dose inferred, filed as 0.5), active compounds read high
This is part of a sample that, as a whole, favours compounds with a hit. Of some 79,000 tested, about 15% had one in any assay.
Listed here: items and their measured growth inhibition.
Give just the numeric value; % need not be written.

// returns reported growth inhibition for input O=C1C=C(Cl)C(=O)C=C1Cl
10

Please give the result for COC(=O)C1=C(C(=O)OC)[C]([Hg][CH3])(C(C)=O)N=N1 (stereo not given) too.
99

====

- procedure.details: NCI Yeast Anticancer Drug Screen. Data for the cln2 rad14 strain (AID 165);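 also: 0% = growth equal to vehicle treated cultures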
- measurement.setup: S. cerevisiae cln2 rad14 strain, at 50.0 µM (retest, dose inferred, filed as 5.0), active compounds read high
- Experimental: Growth inhibition of yeast strains with defined genetic alterations is measured as a screen for potential anti-cancer activity. Selected strains with alterations in DNA damage repair or cell cycle control were exposed to compounds and growth inhibition was measured relative to vehicle treated controls. The strain used in this assay is cln2 rad14
This is part of a sample that, as a whole, favours compounds with a hit. Of some 79,000 tested, about 15% had one in any assay.
readout.type: growth inhibition (%)
A number alone suffices; assume %.

Below are worked cases with known answers.
[
  {
    "compound": "COc1cc2c3c(c1)-c1c(ccc(OC)c1OC)CC3N(CCCl)CC2 (stereo not given)",
    "units.text": "%",
    "value.reported": 77
  },
  {
    "compound": "CCOP(=O)(CC(C)P(=O)(OCC)OCC)OCC.C[CH2][Sn]([Cl])([Cl])[CH2]C (stereo not given)",
    "units.text": "%",
    "value.reported": 52
  },
  {
    "compound": "CCOP(=O)(OCC)/C(C#N)=C/c1ccccc1Cl",
    "units.text": "%",
    "value.reported": 55
  },
  {
    "compound": "O=P(O/C(=C\\c1ccccc1)c1ccccc1)(c1ccccc1)c1ccccc1",
    "units.text": "%",
    "value.reported": 97
  },
  {
    "compound": "Oc1c(Cl)cc(-c2cc(Cl)c(O)c(Cl)c2)cc1Cl",
    "units.text": "%",
    "value.reported": 98
  }
]

What does the data say about its growth inhibition? Entry: CN(N=O)C(=O)NNC(=O)N(C)N=O
18

Param item: COc1cc(C2c3cc4c(cc3[C@@H](Nc3ccc(N)cc3)C3COC(=O)[C@H]23)OCO4)cc(OC)c1O (stereo not given in full)
90

Would you kindly repeat that for CC#N.FC(F)(F)C#CC(F)(F)F.FC(F)(F)C#CC(F)(F)F.FC(F)(F)C#CC(F)(F)F.[W] ?
99

What do you get for Br[C](Br)(Br)[Hg][c]1ccccc1 ?
98

Next record, please: CC(=O)O.CC(=O)[O-].CC(=O)[O-].[Co+3].[NH-]CC[NH-].[NH-]CC[NH-]
96

====

- procedure.details: NCI Yeast Anticancer Drug Screen. Data for the bub3 strain (AID 167)
- measurement.setup: S. cerevisiae bub3 mutant strain, at 11.0 µM, active compounds read high
Compounds without any hit were thinned out: in the full panel of roughly 79,000, 15% have a hit.
readout.type: growth inhibition (%)
Field format: number, assumed %, no unit text.

Please review the entries below; each comes with its answer.
[
  {
    "compound": "Cc1c(N)nc([C@H](CC(N)=O)NC[C@H](N)C(N)=O)nc1C(=O)N[C@H](C(=O)N[C@H](C)[C@@H](O)[C@H](C)C(=O)N[C@H](C(=O)NCCc1nc(-c2nc(C(=O)NCCC[S+](C)C)cs2)cs1)[C@@H](C)O)C(OC1OC(CO)C(O)C(O)C1OC1OC(CO)C(O)C(OC(N)=O)C1O)c1cnc[nH]1 (stereo partly specified)",
    "value.reported": 14
  },
  {
    "compound": "CC1CCC2(NC1)OC1CC3C4CCC5CC(OC6OC(CO)C(OC7OC(CO)C(O)C(OC8OCC(O)C(O)C8O)C7OC7OC(CO)C(O)C(O)C7O)C(O)C6O)CCC5(C)C4CCC3(C)C1C2C (stereo unspecified)",
    "value.reported": -27
  },
  {
    "compound": "CC[C@](O)(C(=O)O)c1cc2n(c(=O)c1CO)Cc1cc3ccccc3nc1-2",
    "value.reported": 67
  }
]

I would be grateful if you could share the reported growth inhibition for CN(C)CCSC1=Nc2ccc(Cl)cc2C(c2ccccc2Cl)=NC1 .
-3

// query: O=[N+]([O-])O.[NH-]C1CCCCC1[NH-].[NH-]C1CCCCC1[NH-].[NH-]C1CCCCC1[NH-].[OH-].[OH-].[OH-].[Pt+4].[Pt+4].[Pt+4] (stereo unspecified)
-14

Also CCN(CCCl)CCCCNc1c2ccccc2nc2ccc(OC)cc12 ?
38
